Quick list: PBM 8-mer E-score per entry.
- Tested on: muMax20 (Max(13-93) K31hArg/K57hArg, M65Nle)
- Experimental protocol: PBM 8-mer E-score (E-score (rank enrichment, -0.5 to 0.5)); higher = stronger preferential binding
In all, about 33,000 sequences were measured (“E-score (rank enrichment, -0.5 to 0.5)”: median about -0.0068, highest 2% from about 0.24 on). What follows is part of a selection rich in the highest values, with near analogues and random picks from the rest.
# print the numeric value only

CGTGCACA = 0.098
AGTTAGTC = -0.094
CGGGGGGA = -0.222
AGTAGCTC = -0.0686
ACATAAGA = 0.174
CGGGCGAG = -0.112

# PBM 8-mer E-score (sequence: CTATATAA ) is 0.165

Item: TCACTCCA | PBM 8-mer E-score: -0.0737

Measured PBM 8-mer E-score, CTGTGAGC : -0.113

Source: the supplement of paper PMC12636033
